# Tested on: SKN-3 (Head and Neck Carcinoma);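 note: after 72 h of two-drug dosing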
# Protocol description: Bliss excess, mean over the matrix (fraction); higher = more synergy
Recorded Bliss excess for the following compounds
Parameter measured: Bliss excess

• COc1cccc(OCCCN)c1-c1cc(Nc2cnc(C#N)cn2)n[nH]1 [Prexasertib] + O=C(c1cc(Cc2n[nH]c(=O)c3ccccc23)ccc1F)N1CCN(C(=O)C2CC2)CC1 [Olaparib] (first compound max 1 µM, 7x7, partner max 10 µM) = -0.0113
• CC1(C)CCC(CN2CCN(c3ccc(C(=O)NS(=O)(=O)c4ccc(NCC5CCOCC5)c([N+](=O)[O-])c4)c(Oc4cnc5[nH]ccc5c4)c3)CC2)=C(c2ccc(Cl)cc2)C1 [Venetoclax] + CN(C)CCCOc1ccc(-c2ccc3ncc4c(c3c2)n(C2CCOCC2)c(=O)n4C)cn1 [AZD0156] (first compound max 1 µM, 7x7, partner max 1 µM) = -0.0221
• CS(=O)(=O)CCNCc1ccc(-c2ccc3ncnc(Nc4ccc(OCc5cccc(F)c5)c(Cl)c4)c3c2)o1 [Lapatinib] + NC1(c2ccc(-c3nc4ccn5c(=O)[nH]nc5c4cc3-c3ccccc3)cc2)CCC1 [MK-2206] (first compound max 10 µM, 7x7, partner max 10 µM) = -0.0508
• Cc1cc2ncnn2cc1Nc1ncc2c(n1)n(C1CCOCC1)c(=O)n2C [AZD7648] + O=C(c1cc(Cc2n[nH]c(=O)c3ccccc23)ccc1F)N1CCN(C(=O)C2CC2)CC1 [Olaparib] (first compound max 10 µM, 7x7, partner max 10 µM) = -0.0199

Reference source: the supplement of paper PMC11061612
